System: Mycobacterium tuberculosis H37Rv
Experiment: Inhibition of ATP synthase in Mycobacterium tuberculosis H37Rv assessed as reduction in bacterial growth incubated for 7 days by microplate alamar blue assay
Conditions: time 7.0 day
PROPERTY MEASURED: MIC=>90 (µg/mL)
Report only the number, with the unit µg/mL understood.

O=c1c(NCc2ccccn2)c(Nc2ccc3scnc3c2)c1=O; 0.963
O=c1c(NCc2ccccn2)c(Nc2ccc(C(F)(F)F)cc2)c1=O; 14.9

Moving on to the next compound.
Tested on Mycobacterium tuberculosis H37Rv, the item `CO[C@H]1/C=C/O[C@@]2(C)Oc3c(C)c(O)c4c(O)c(c(/C=N/N5CCN(C)CC5)c(O)c4c3C2=O)NC(=O)/C(C)=C\C=C\[C@H](C)[C@H](O)[C@@H](C)[C@@H](O)[C@@H](C)[C@H](OC(C)=O)[C@@H]1C` showed MIC=>90 equal to 0.015
